Measured Reads Counts per second (read 1), listed per entry.
- Tested on: recombinant NLuc
- Assay type: biochemical
- particulars: recombinant NLuc, first read column
Give the value in Counts per second but do not write Counts per second after it.

Take a look at these entries with their results.
{"compound": "O=C(O)/C=C/c1ccc(O)c(O)c1 [Caffeic acid]", "Reads Counts per second (read 1) (Counts per second)": 390077}
{"compound": "CC(C)n1c(/C=C/C(O)CC(O)CC(=O)O)c(-c2ccc(F)cc2)c2ccccc21 (centres unmarked) [Fluvastatin Sodium]", "Reads Counts per second (read 1) (Counts per second)": 344916}

GET Reads Counts per second (read 1) | system: recombinant NLuc | item: Cc1[nH]c2ccccc2c1CCNCc1ccc(/C=C/C(=O)NO)cc1 [Panobinostat]
330994

GET Reads Counts per second (read 1) | system: recombinant NLuc | item: CC[C@H](C)C(=O)O[C@H]1C[C@@H](C)C=C2C=C[C@H](C)[C@H](CC[C@@H]3C[C@@H](O)CC(=O)O3)[C@H]21 [Lovastatin]
351803

GET Reads Counts per second (read 1) | system: recombinant NLuc | item: O=C([O-])CC(O)(CC(=O)[O-])C(=O)[O-].[Li+].[Li+].[Li+] [Lithium Citrate]
343238

GET Reads Counts per second (read 1) | system: recombinant NLuc | item: O=c1c(-c2ccc(O)cc2)coc2cc(O)ccc12 [Daidzein]
339091

GET Reads Counts per second (read 1) | system: recombinant NLuc | item: COC(=O)C1=C(C)NC(C)=C(C(=O)OC(C)C)C1c1cccc2nonc12 (centres unmarked) [Isradipine (Dynacirc), Isradipine]
19176

GET Reads Counts per second (read 1) | system: recombinant NLuc | item: C=C1CC[C@H](O)C/C1=C/C=C1\CCC[C@]2(C)[C@@H]([C@H](C)CCCC(C)C)CC[C@@H]12 [Vitamin D3]
370629

Source of measurements: paper PMC8428568
